# EXPERIMENT_DESCRIPTION: inhibitors of TNFa-induced NFkB p65 translocation, primary screen, imaging, HUVEC, MLSMR starter and 10KST1 sets (AID 438);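 note: compound added about 3h40 before a 20 min TNFalpha stimulation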
# TEST_SETTINGS: HUVEC TNFa-induced p65 nuclear translocation; measured here: nuclei count (cytotoxicity indicator), at 2.08 µM
For each record, write down the corresponding cell count.
Give bare numbers.

Would you please look over these solved cases?
molecule="Cc1nnc2n(Cc3ccccc3)c(=O)c3c4c(sc3n12)COC(C(C)C)C4 (stereo not drawn)" meas_value=511
molecule=COc1cccc(-c2nnc3sc(C4CCCCC4)nn23)c1 meas_value=569
molecule=CCC(NC(=O)Nc1cc(OC)c(OC)c(OC)c1)(C(F)(F)F)C(F)(F)F meas_value=545

Hi! Can you tell me cell count for each of these molecules?
1. Nc1cccc(C(=O)O)c1
2. CCN(CC)c1ccc2c(C)c(-c3ccc(N)cc3)c(=O)oc2c1

(A)
563
446

====

# MEASURED_TARGET: Voltage-gated potassium channel subunit beta-2 (Rattus norvegicus) (UniProt P62483)
# Sequence (P62483 whole entry, looked up): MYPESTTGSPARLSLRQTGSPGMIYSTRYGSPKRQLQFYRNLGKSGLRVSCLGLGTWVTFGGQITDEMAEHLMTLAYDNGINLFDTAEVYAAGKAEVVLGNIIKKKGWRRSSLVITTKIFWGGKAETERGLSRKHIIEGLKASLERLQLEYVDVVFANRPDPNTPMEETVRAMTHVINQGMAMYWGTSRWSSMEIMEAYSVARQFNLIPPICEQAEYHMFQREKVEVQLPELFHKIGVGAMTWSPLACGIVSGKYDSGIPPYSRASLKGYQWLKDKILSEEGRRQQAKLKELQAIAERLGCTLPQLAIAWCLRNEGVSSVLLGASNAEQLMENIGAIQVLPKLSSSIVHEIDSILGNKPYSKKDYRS
# EXPERIMENT_DESCRIPTION: KvBeta positive modulators, primary screen, biochemical, NADPH fluorescence (AID 623);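 note: fluorescence intensity change per second fitted from 20 to 320 s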
# TEST_SETTINGS: Recombinant KvBeta, NADPH fluorescence decrease slope, 10 min; at 10 µM; stronger effect = lower value
Active and inactive are the calls of the source.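 The calls were made as follows: active = NADPH fluorescence slope more negative than the mean of all samples by about 3 SD, 99.7% confidence; inactive = the rest.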
OBSERVATION_TYPE: NADPH fluorescence slope

Here are 5 compounds together with their reported answers.
compound="CCOC(=O)CSC1=C(C#N)C(c2ccc(OC)cc2)C2=C(CC(C)(C)CC2=O)N1 (stereo not drawn)" meas_value="-0.000354 (inactive)"
compound="COc1ccc(C2CC(=O)c3sc(N)nc3C2)cc1 (stereo not drawn)" meas_value="-1.9e-05 (inactive)"
compound="CC(C)NCC(O)COc1cccc2[nH]ccc12 (stereo not drawn)" meas_value="-4.4e-05 (inactive)"
compound=CCN(CC)c1ccc2cc(C(=O)Nc3ccccn3)c(=O)oc2c1 meas_value="-2.6e-05 (inactive)"
compound="CC(NCCc1ccc(O)cc1)C(O)c1ccc(O)cc1 (stereo not drawn)" meas_value="-9.7e-05 (inactive)"

Consider the following items and state reported NADPH fluorescence slope for each.
1. CCOC(=O)C1=C(C(C)=O)C(c2cccnc2)C(C#N)=C(N)O1 (stereo not drawn)
2. Cc1cccc(C)c1OCC(O)CNS(=O)(=O)c1ccccc1C(=O)N1CCOCC1 (stereo not drawn)
3. CCn1cc(C(=O)NCC2CCCO2)c(=O)c2cc(F)c(N3CCN(C)CC3)cc21 (stereo not drawn)
4. C[N+](C)(C)CCOP(=O)([O-])OC[C@H](O)CO
5. O=c1c2c3c(sc2n2cnnc2n1Cc1ccccc1)CN(Cc1ccccc1)CC3

(A)
-1e-05 (inactive)
-1.1e-05 (inactive)
-2.9e-05 (inactive)
-5.7e-05 (inactive)
-1.4e-05 (inactive)

====

# MEASURED_TARGET: Dual specificity protein phosphatase 6 (Homo sapiens)
# EXPERIMENT_DESCRIPTION: DUSP6 inhibitors restoring Erk phosphorylation by chemical complementation, primary imaging in DUSP6-transfected HeLa (AID 609);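 note: phospho-Erk level distribution per well compared with pooled transfected vehicle control wells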
# TEST_SETTINGS: HeLa MKP-3 transfected, phospho-Erk imaging KS statistic; at 10 µM; stronger effect = higher value; cells stimulated with TPA for 15 min
OBSERVATION_TYPE: inhibition (%)
One number for each entry, in %.

compound=COc1ccc(Nc2oc(-c3cccs3)nc2C#N)cc1 observation_type=inhibition meas_value=15

// for each compound in input: emit inhibition
1. CC(C)(C)C1=Nn2c(nnc2-c2ccco2)SC1
2. COc1cccc(/C(O)=C2\C(=O)C(=O)N(c3ccccn3)C2c2ccccc2OC)c1 (centres undefined)
3. Cn1c(O)c(C=Nc2ccc(Cc3ccncc3)cc2)c(=O)n(C)c1=O
4. CCOc1ccc(CC2CC(=O)NC2=O)cc1 (centres undefined)

(A)
1. -6.06
2. 12.3
3. 4.25
4. -0.159
